Recorded values, source patent US10231954B2.

I'd appreciate it if you could supply residual kinase activity, MAPKAP-K2 values for the items below.
# System Name: MAPKAP-K2 (Homo sapiens)
# Sequence (P49137 whole entry, species assumed): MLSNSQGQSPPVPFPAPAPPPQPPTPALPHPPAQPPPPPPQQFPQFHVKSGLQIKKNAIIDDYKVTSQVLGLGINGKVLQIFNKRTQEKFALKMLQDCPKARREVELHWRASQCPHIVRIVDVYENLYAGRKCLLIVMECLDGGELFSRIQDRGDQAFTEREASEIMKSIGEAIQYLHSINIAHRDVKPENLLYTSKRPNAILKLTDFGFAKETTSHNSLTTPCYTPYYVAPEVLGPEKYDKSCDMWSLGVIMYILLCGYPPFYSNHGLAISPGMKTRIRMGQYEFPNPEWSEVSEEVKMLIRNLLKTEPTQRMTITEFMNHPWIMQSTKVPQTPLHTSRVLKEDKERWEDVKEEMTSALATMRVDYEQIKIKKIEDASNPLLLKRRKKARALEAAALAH
# Measurement Description: Kinase profiling MAPKAP-K2
# Type: biochemical
# Condition Set: 100 micromolar inhibitor concentration; 100 is no change
Answers are plain numbers.

Some compounds with known residual kinase activity, MAPKAP-K2 results, for comparison:
> print(dat)
                    sample.smiles               system.name  recorded.number
1  O=C(Nc1nc2ccc(O)cc2s1)c1ccccn1  MAPKAP-K2 (Homo sapiens)               43
2  O=C(Nc1nc2ccc(O)cc2s1)c1cccnc1  MAPKAP-K2 (Homo sapiens)               56
3  O=C(Nc1nc2cc(O)ccc2s1)c1ccncc1  MAPKAP-K2 (Homo sapiens)               82

Batch request: residual kinase activity, MAPKAP-K2 per item, same order as input.
1. O=C(Nc1nc2cc(O)ccc2s1)c1cccnc1
2. O=C(Nc1nc2ccc(O)cc2s1)c1ccncc1
3. O=C(Nc1nc2ccc(O)cc2s1)c1ccccc1
4. CC(=O)Nc1nc2cc(C)ccc2s1
5. O=C(Nc1nc2cc(O)ccc2s1)c1ccccn1
6. CC(=O)Nc1nc2ccccc2s1

Data returned:
109
72
59
105
98
102
